- measured-target: Alpha-bungarotoxin (Bungarus multicinctus)
- experiment-summary: compounds binding labelled alpha-BTX control protein – biochemical, small-molecule microarray, Alexa647 label, 635/667 nm fluorescence, artefact control for SMM control protein annotation, profiling panel (AID 1117)
- run-parameters: alpha-BTX-A647 binding fluorescence, higher = more signal
Think of 0.2 as a floor: if composite z-score stands on it or above, it is 1; beneath it, 0.

These recorded examples may help you get a feel for the data.
1) CC1C=C(CCCO)C=C(C(=O)OCCS(C)(=O)=O)C(C(=O)OCCS(C)(=O)=O)=CN1Cc1cccc(OC(F)(F)F)c1 (stereo not given)
1
2) CCOc1cc(C(O)C2C=CC3C(=O)NC(=O)C3N2Nc2ccccn2)ccc1O (stereo not given)
1
3) COc1ccccc1CN1C(=O)c2ccccc2[C@@]2(Cc3ccccc3N(C3CC3)C2=O)[C@@H]1c1ccc(CO)cc1
0
4) C[N+](C)(C)CCCC[C@@H]1NC(=O)[C@@H]2C[C@H](C(=O)NCCCCCNC(=O)CS)[C@H](c3cccc(OCCO)c3)N2C1=O
1
5) C=CCC(OC(C)=O)[C@@H]1[C@@H](N(Cc2ccc(-c3cccc(C(F)(F)F)c3)o2)C(=O)c2cccc3ccccc23)c2cc(OCCCO)ccc2N1C(=O)c1ccc(-c2ccccc2)cc1 (stereo not given in full)
0
6) CC(C)CCC[C@@H](C)[C@H]1CC[C@@]2(C)C3=C(CC[C@]12C)[C@@]1(C)CC[C@H](OC(=O)c2ccc(N)cc2)C(C)(C)C1CC3 (stereo not given in full)
0

Now for another entry.
Is composite z-score for `O=C1O[C@H](c2ccccc2)[C@H](c2ccccc2)N2[C@H]1[C@@H](C(=O)N1CCCCCCC1)[C@]1(C(=O)Nc3ccc(C#CCCO)cc31)[C@H]2c1ccc(OCCO)cc1` at or above 0.2?
1
